- measurementNotes: yeast display, Sf9 membrane polyspecificity reagent, FACS + sequencing; frameworks hold sequencing errors
measuredParameter: polyreactivity (PSR sort gate)

Please review the entries below; each comes with its answer.
QVQLLESGGGLVQAGGSLRLRCAASGFTFRKYTMGWYRQAPGKERELVAAISSGVSTNYADSVKGRFTISRDNAKKTVYLQMNSLKAEDTAVYYCAARGGYYQGRYKYGYWGQGTQVTVSS
high polyreactivity
QVQLVESGGGLVQAGGSLRLSCAASGFIFYYYAMGWYRQAPGKERELVARISRVGSTYYADSVKGRFTISRDNAKNTVYLQINSLKPEDTAVYYCAKVSIARIKTRYNYWGQATQVTVSS
high polyreactivity
QVQLVESGGGLVQAGGSLRLSCAASGRTFQDNAMGWNRQAPGKETELVAAISWRGGSTNYADSVKGRFTISRDHAKNTVYLQMNSLKPEHTAVYYCNRDPRKYGKLDYWGQGTQVTVSS
low polyreactivity
QVQLVESGGGLVQAGGSLRLTCAASGSTYLNYAMGWYRQAPGKERELVAAITSGGRTYYADSVKGRFTISRDNAKNTVYLQMNSLKPEDTAVYYCAKVSYRYGLYDYWGQGTQVTVSS
high polyreactivity
QVQLVESGGGLVQAGGSLRLSCAASGYIFYGYVMGWYRQAPGKERELVAGITYSGGGGTHYADSVKGRFTISRDNAKNTVYLQMNSLKPEDTAVYYCATADPQLNRTYYSYGMDYWGQGTQVTVSS
low polyreactivity

[ask] Find the recorded polyreactivity (PSR sort gate) belonging to `QVQLIESGGGLVQAGGSLRLSCAASGGTFRAYAMGWYRQAPGKEREFVAAITWSGGRTYYADSVKGRFTISRDNAKNTVYLQMNSLKPEDTEVYYCATDQGHYYHAEHDYWGQGTQVTVSS` and report it.
[reply] low polyreactivity

[ask] Find the recorded polyreactivity (PSR sort gate) belonging to `QLQHVESGGGLVQAGGSLRLTCAASGYTYHGYAMGWYRQAPGKERELVAVITQRGGSTSYADSVKGSFTISRDYAKNNVNLQMKSLKPVDTAVYYCNDSAWLVVARTRYGYWGQGTQVTVSS` and report it.
[reply] low polyreactivity
